# Test system: HPV-16 genome
# Test Protocol: qPCR sensitivity against HPV-16 copy number (known-copy HPV-16 DNA among 10 ng normal human DNA)
# Condition Summary: samples tested 3 times, 10 ng DNA from healthy individual
# Excerpt: All samples were run in triplicates. To seek the most promising primer-probe set in the viewpoint of sensitivity, Applicants evaluated the sensitivity analysis for these candidate primer-probe sets. […] Therefore, the sensitivity of E6 (FIG. 3A) and E7 (FIG. 3B) was also 30 copies. […] To validate the function of primer/probe sets, Applicants calculated the slope of delta Rn against cycle threshold for HPV-16 copy number detection from defined HPV copy number DNA derived from CaSki cell line.
Attribute Measured: number of reactions against 10 HPV-16 copies

molecule="BR E1-4: HPV-16 E1 region primer/probe set, SEQ ID NO: 37-39 (nucleic acid, chemistry not given here) DNA 1: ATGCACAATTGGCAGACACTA DNA 2: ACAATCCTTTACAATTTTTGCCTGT DNA 3: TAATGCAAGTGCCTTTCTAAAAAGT" reading="2 reactions"
molecule="HR E5L2-4: primer/probe set for junction between E5 and L2, SEQ ID NO: 55-57 (same as SEQ ID NO: 4-6) (nucleic acid, chemistry not given here) DNA 1: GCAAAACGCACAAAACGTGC DNA 2: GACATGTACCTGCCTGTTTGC DNA 3: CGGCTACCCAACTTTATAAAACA" reading=one
molecule="E6: previously designed (historical) HPV-16 E6 primers and Taqman probe, SEQ ID NO: 7-9, positive control (nucleic acid, Taqman probe, labels not given here) DNA 1: TCAGGACCCACAGGAGCG DNA 2: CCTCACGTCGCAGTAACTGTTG DNA 3: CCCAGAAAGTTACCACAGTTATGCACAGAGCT" reading=one
